These measurements were taken from ChEMBL document CHEMBL1146317.

Provide the recorded Inhibition for the entries that follow.
Species: Rattus norvegicus
Assay: Inhibition of testoterone-induced prostate weight in castrated immature Sprague-Dawley rat at 2 mg/day relative to control
Format: functional, Prostate gland
One number for each entry, in %.

List Inhibition for every entry below, keeping the order given.
1. CC(O)(c1nc2cc(Cl)c(Cl)cc2[nH]1)C(F)(F)F (centres undefined)
2. O=C(Cn1c(CC(F)(F)F)nc2cc(Cl)c(Cl)cc21)c1ccccn1
3. N#Cc1cccc(Cn2c(CC(F)(F)F)nc3cc(Cl)c(Cl)cc32)c1
4. FC(F)(F)Cc1nc2cc(Cl)c(Cl)cc2n1Cc1ccccc1-c1cccnc1
5. O=C(Cn1c(CC(F)(F)F)nc2cc(Cl)c(Cl)cc21)c1ccc(F)cc1
6. FC(F)(F)Cc1nc2cc(Cl)c(Cl)cc2n1CCOc1ccc(Cl)cc1

Outgoing:
[74, 76, 70, 80, 67, 48]

I have 2 molecules here; please give me Inhibition for each one.
1. N#Cc1ccc(Cn2c(CC(F)(F)F)nc3cc(Cl)c(Cl)cc32)cc1
2. COc1ccccc1C(=O)Cn1c(CC(F)(F)F)nc2cc(Cl)c(Cl)cc21

Outgoing:
[68, 10]

Value sought for every listed molecule: Inhibition.
1. FC(F)(F)Cc1nc2cc(Cl)c(Cl)cc2n1Cc1ccccc1-c1ccccc1
2. N#Cc1ccccc1Cn1c(CC(F)(F)F)nc2cc(Cl)c(Cl)cc21
3. Oc1ccc(Cn2c(CC(F)(F)F)nc3cc(Cl)c(Cl)cc32)cc1
4. O=C(Cn1c(CC(F)(F)F)nc2cc(Cl)c(Cl)cc21)c1cccs1
5. OC(c1nc2cc(Cl)c(Cl)cc2[nH]1)C(F)(F)F (centres undefined)
6. O=C(Cn1c(CC(F)(F)F)nc2cc(Cl)c(Cl)cc21)c1ccccc1

Outgoing:
1: 79; 2: 74; 3: 28; 4: 43; 5: 96; 6: 38
